System: NCI-H226 lung
Assay: NCI tumour cell line growth inhibition, 48 h
experimental readout: TGI

Example cases with answers are listed next.
| compound | TGI |
| --- | --- |
| O=C(Nc1ccc(Cl)cc1)c1cc(S(=O)(=O)Nc2nnc3c(Cl)cc(C(F)(F)F)cn23)c(S)cc1Cl | > 100 µM |
| COC(=O)Nc1nc2ccc(Oc3cccc(NC(=O)Nc4cc(C(F)(F)F)ccc4F)c3)cc2[nH]1 | > 25 µM |
| CC(=O)Oc1ccc2c3c1O[C@H]1[C@H](O)CC[C@@]4(O)[C@@H](C2)N(C)CC[C@]314 | > 100 µM |
| O=C(CC(Cl)=C(Cl)Cl)c1ccccc1 | 72.5 µM |
| COc1cccc(-c2cc3c4c(nc5ccccc53)C(=O)c3cccnc3-c4n2)c1 | 22.3 µM |
| CCc1cccc(C)c1NC(=O)C1=C(C)NC(C)=C(C(=O)Nc2c(C)cccc2CC)C1c1ccc2c(c1)OCO2 | 49.5 µM |

We next turn to a different compound, shown below.
What does the record list as TGI for COc1ccc(C2=CC(c3ccc(OC)cc3Br)N3C=CSC3=N2)cc1 (configuration not stated) ?
37.8 µM

###

Listed here are molecules together with their documented TGI.
Test system: MALME-3M melanoma
Assay: NCI tumour cell line growth inhibition, 48 h

Example cases with answers are listed next.
| molecule | TGI |
| --- | --- |
| Cn1cc(-c2csc(-c3cn(CCCN4CCCCC4)c4ccccc34)n2)c2cccnc21 | 3.19 µM |
| CC(=O)CC1=C(OC(C)C)C2(OCCO2)C1O (stereo not given) | > 100 µM |
| COc1ccc(C2=C(c3ccc(OC)c(OC)c3)C(=O)N3CCCC3C2)cc1 (stereo not given) | > 100 µM |
| O=C(c1ccccc1)N1C(=S)N(c2ccccn2)C(=Nc2ccccc2)C1=Nc1ccccc1 | 53.4 µM |
| CCOc1ccc(NC(=O)C(=O)C(C(=O)c2ccc3ccccc3c2)C2OC(=O)c3ccccc32)cc1 (stereo not given) | 77.4 µM |
| CCOC(=O)NN(C(=O)OCC)c1c(C)cc(C)cc1C | > 100 µM |
| ON=C(CC(O)(C(F)(F)Cl)C(F)(F)Cl)CC(O)(C(F)(F)Cl)C(F)(F)Cl | > 10 µM |
| O=C(N/N=C/c1ccccc1)c1cccc2nc3ccccc3nc12 | > 100 µM |

What does the record list as TGI for COc1cccc(NC(=O)CC(=O)N2N=C(N3c4ccccc4Sc4ccccc43)CC2c2ccccc2)c1 (stereo not given) ?
> 100 µM

Field entry: `Nc1ncnc2c1c(-c1ccc(Oc3ccccc3)cc1)nn2C[C@@H]1SSC[C@H]1O`
6.45 µM

###

Tested on: SK-MEL-28 melanoma
Assay: NCI tumour cell line growth inhibition, 48 h
Listed here are compounds together with their documented TGI.

Example cases with answers are listed next.
| compound | experimental readout | test result |
| --- | --- | --- |
| N#CNC(=NCCc1c[nH]c2ccccc12)Oc1ccccc1 | TGI | > 100 µM |
| CCSc1nc(SCC)c2c(-c3ccc(OC)c(OC)c3)c(C#N)c(SCC)nc2n1 | TGI | > 100 µM |
| COc1ccc(C2=C(c3ccc(OC)c(OC)c3)C(=O)N3CCCC3C2)cc1 (stereo unspecified) | TGI | > 100 µM |
| CSc1nc2c(c(=O)[nH]1)N=C(c1ccccc1)CC(c1ccccc1)N2 (stereo unspecified) | TGI | > 100 µM |
| Oc1c(Cl)c(Cl)c(O)c2c1CCCC2 | TGI | 27.7 µM |

What does the record list as TGI for `COC(=O)/C=C1/OC(c2ccc(OC)cc2)=C(Cl)C1=O` ?
32.6 µM

Field entry: CCN1C(=O)N(CC)C2C1NN=c1s/c(=C\c3ccccn3)c(=O)n12 (stereo unspecified)
> 100 µM
